compounds and their reported Emax
molecular target: NMDAR2B expressing HEK cell membranes (Homo sapiens, UniProt Q05586+Q13224); construct: expressed in transfected cells; host or cells: HEK cells (membrane extract); experiment: NMDAR agonist assay, [3H]MK-801 binding, NMDAR2B; format: biochemical; settings: 50 μM glutamate; relative to 1 mM glycine; read-out: NMDAR2B: % maximal [3H]MK-801 binding relative to 1 mM glycine
Sequence (Q13224 27-1484, other chains not shown): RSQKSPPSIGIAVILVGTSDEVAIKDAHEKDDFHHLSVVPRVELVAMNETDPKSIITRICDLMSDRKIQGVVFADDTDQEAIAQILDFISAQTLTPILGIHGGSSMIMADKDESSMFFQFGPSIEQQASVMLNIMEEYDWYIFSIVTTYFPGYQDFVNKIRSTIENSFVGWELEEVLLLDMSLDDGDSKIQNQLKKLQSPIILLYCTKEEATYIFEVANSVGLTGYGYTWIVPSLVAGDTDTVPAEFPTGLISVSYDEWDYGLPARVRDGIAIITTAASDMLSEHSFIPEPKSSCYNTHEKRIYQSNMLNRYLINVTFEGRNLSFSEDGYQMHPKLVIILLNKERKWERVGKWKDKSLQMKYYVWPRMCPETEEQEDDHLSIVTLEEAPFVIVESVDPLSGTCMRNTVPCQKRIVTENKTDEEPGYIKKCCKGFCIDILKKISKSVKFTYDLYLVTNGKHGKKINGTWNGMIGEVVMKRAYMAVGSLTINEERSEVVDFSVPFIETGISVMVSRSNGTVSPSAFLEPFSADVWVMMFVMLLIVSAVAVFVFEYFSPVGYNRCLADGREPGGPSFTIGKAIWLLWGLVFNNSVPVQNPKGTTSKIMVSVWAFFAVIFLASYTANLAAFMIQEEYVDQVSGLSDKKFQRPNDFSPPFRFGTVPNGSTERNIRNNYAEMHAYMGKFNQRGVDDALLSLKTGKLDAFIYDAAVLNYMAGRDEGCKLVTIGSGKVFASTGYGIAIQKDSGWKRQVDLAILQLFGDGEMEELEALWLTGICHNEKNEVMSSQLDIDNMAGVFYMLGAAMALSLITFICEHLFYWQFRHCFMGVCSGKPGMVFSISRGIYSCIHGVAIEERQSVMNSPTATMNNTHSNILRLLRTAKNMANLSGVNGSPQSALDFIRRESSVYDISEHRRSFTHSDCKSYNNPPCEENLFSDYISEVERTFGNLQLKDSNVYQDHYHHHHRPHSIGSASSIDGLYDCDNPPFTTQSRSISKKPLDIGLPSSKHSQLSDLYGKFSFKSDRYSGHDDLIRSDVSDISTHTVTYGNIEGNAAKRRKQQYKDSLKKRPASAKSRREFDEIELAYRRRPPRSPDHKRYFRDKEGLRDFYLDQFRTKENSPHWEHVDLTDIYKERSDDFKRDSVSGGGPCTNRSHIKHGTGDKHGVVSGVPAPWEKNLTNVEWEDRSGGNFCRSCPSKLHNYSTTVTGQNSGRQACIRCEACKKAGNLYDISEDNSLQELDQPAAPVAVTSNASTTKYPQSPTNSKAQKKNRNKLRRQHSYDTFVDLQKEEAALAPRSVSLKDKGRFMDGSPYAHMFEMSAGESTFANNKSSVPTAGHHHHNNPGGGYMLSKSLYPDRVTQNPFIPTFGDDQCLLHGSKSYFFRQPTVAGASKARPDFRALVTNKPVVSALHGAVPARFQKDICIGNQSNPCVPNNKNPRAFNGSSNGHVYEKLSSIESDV

Use these answered entries as a reference point.
NC(=O)C1CCC2(CNC2=O)N1Cc1ccccc1 (single isomer, unassigned) : < 100%
CNC(=O)[C@@H](NCC1CCC2(CN(OCc3ccccc3)C2=O)N1C(=O)OC(C)(C)C)[C@@H](C)O (single isomer, unassigned) : 0%
CC(C)CN1C(C(N)=O)CCC12CNC2=O (single isomer, unassigned) : > 100%

Entry under test: C[C@@H](O)[C@H](NCC1CCC2(CN(OCc3ccccc3)C2=O)N1C(=O)OC(C)(C)C)C(=O)N(C)C (single isomer, unassigned) . Its Emax was < 100%

====

assay: Plasma stability (Rat); type: in vitro ADME
// reported Plasma (Rat): percent of compound remaining after 60 minutes for each item listed
Report the value in % with no unit label.

For orientation, consider the following solved cases.
C[C@@H](O)[C@@H](C(N)=O)N1CC2(CCC3(CN([C@H](C(N)=O)[C@@H](C)O)C3=O)N2C(=O)OC(C)(C)C)C1=O (some centres unmarked) : 82
C[C@@H](O)[C@H](NC(=O)C1CCC2(CNC2=O)N1Cc1ccccc1)C(N)=O (single isomer, unassigned) [AM] : 87

The value of Plasma (Rat): percent of compound remaining after 60 minutes measured for the molecule CC(C)CN1[C@@]2(CC[C@@]13CNC3=O)CNC2=O turned out to be 88

// field: Plasma (Rat): percent of compound remaining after 60 minutes; key: CC(C)C(=O)N1C(C(=O)N[C@H](C(N)=O)[C@@H](C)O)CCC12CNC2=O (single isomer, unassigned) ; value = 100

Plasma (Rat): percent of compound remaining after 60 minutes reading for C[C@@H](O)[C@H](NC(=O)C1CCC2(CNC2=O)N1)C(N)=O (single isomer, unassigned) [AQ-2] : 95

C[C@@H](O)[C@H](NC(=O)C1CCC2(CNC2=O)N1Cc1ccccc1)C(N)=O (single isomer, unassigned) [AN] yielded Plasma (Rat): percent of compound remaining after 60 minutes of 87

For reference, reported Plasma (Rat): percent of compound remaining after 60 minutes for O=C1NCC12CCC1(CNC1=O)N2Cc1ccccc1 (single isomer, unassigned) [AC-3] stands at 85

Just so you know, measured Plasma (Rat): percent of compound remaining after 60 minutes for CN1C2(CCC13CNC3=O)CNC2=O (single isomer, unassigned) came out at 83

Plasma (Rat): percent of compound remaining after 60 minutes in this record for O=C1NCC12CCC1(CNC1=O)N2Cc1ccccc1 (single isomer, unassigned) [AC-2] : 94

Entry C[C@@H](O)[C@H](NC(=O)C1CCC2(CNC2=O)N1)C(N)=O (single isomer, unassigned) [AQ-1] , Plasma (Rat): percent of compound remaining after 60 minutes reported as 100

The molecule listed as CC(=O)N1C(C(=O)N[C@H](C(N)=O)[C@@H](C)O)CCC12CNC2=O (some centres unmarked) shows Plasma (Rat): percent of compound remaining after 60 minutes equal to 93

// CC(C)(C)OC(=O)N1C(C(N)=O)CCC12CN(OCc1ccccc1)C2=O (single isomer, unassigned) : Plasma (Rat): percent of compound remaining after 60 minutes value = 95

Reference source: patent US11028095B2
